system: N. meninigitidis (LNP24198) expressing luciferase (LuxABCDE); test: N. meningitidis luminescent strain growth assay (16 h); type: cell-based, Neisseria meningitidis; settings: minimum inhibitory concentration, N. meningitidis growth, 16 h, luminescent system (<800 RLU)
MEASURE: MIC (µM)

[
  {
    "MOLECULE": "F[B-](F)(F)c1ccccc1.[K+] [Compound 2, Potassium trifluoro(phenyl)borate, reference compound]",
    "MEASURE": "MIC",
    "COMPARISON OPERATOR": ">",
    "REPORTED RESULT": 250
  },
  {
    "MOLECULE": "Cc1ccc([B-](c2ccccc2)(c2ccccc2)c2ccccc2)cc1.[Na+] [Compound 12, Sodium tolyltriphenylborate]",
    "MEASURE": "MIC",
    "COMPARISON OPERATOR": "=",
    "REPORTED RESULT": 25
  },
  {
    "MOLECULE": "Cc1ccc([B-](c2ccccc2)(c2ccc(C)cc2)c2ccc(C)cc2)cc1.[Na+]",
    "MEASURE": "MIC",
    "COMPARISON OPERATOR": "=",
    "REPORTED RESULT": 5
  }
]

====

test: Partition coefficient (Log P), shaking flask method (HPLC-UV); format: physicochemical; conditions: octanol/water

[
  {
    "COMPOUND": "C[B-](c1ccccc1)(c1ccccc1)c1ccccc1 [Compound 5, Sodium methyltriphenylborate]",
    "logP": -0.96
  },
  {
    "COMPOUND": "CCCCCC[B-](c1ccccc1)(c1ccccc1)c1ccccc1 [Compound 9, Sodium hexyltriphenylborate]",
    "logP": 2.83
  },
  {
    "COMPOUND": "CC[B-](c1ccccc1)(c1ccccc1)c1ccccc1 [Compound 6, Sodium ethyltriphenylborate]",
    "logP": 0
  },
  {
    "COMPOUND": "CCC[B-](c1ccccc1)(c1ccccc1)c1ccccc1 [Compound 7, Sodium n-propyltriphenylborate]",
    "logP": 0.8
  },
  {
    "COMPOUND": "CCCCCCCC[B-](c1ccccc1)(c1ccccc1)c1ccccc1 [Compound 11, Sodium octyltriphenylborate]",
    "logP": 4.1
  },
  {
    "COMPOUND": "CCCCCCC[B-](c1ccccc1)(c1ccccc1)c1ccccc1 [Compound 10, Sodium heptyltriphenylborate]",
    "logP": 3.1
  }
]
